For each record, write down the corresponding binding affinity % of 1D2.
Biological target: T1, recombinant human GM-CSF (human, UniProt P04141 18-144)
T1 construct: also called rhGM-CSF; CSF2
T1 sequence (P04141 18-144 limits assumed): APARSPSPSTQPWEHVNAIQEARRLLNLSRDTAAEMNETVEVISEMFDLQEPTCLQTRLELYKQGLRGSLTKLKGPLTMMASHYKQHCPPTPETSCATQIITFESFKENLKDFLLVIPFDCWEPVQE
Experiment: ELISA on coated rhGM-CSF, UBA relative to 1D2
Include the unit right after the number.

**Query** Recorded binding affinity % of 1D2 of 1D2 SDR mutant HY102I (antibody, IgG1, V domains shown, also called X5 I) VH: QVQLVQSGAEVKKPGASVKVSCEASGYTFTDKYLHWVRQAPGQGLEWMAWINPKSGGTFYAQNFKGRVTVTRDTSINTAYLELTSLRLDDTSTYYCARGRDIYDQGAADLWGQGTMVTVSS VL: DIQLTQSPSSLSASVGDRVTITCRASQGINSVLAWYQQKPGKAPKLLLYAASKLESGVPSRFSGSGSGTDYTLTISSLQPEDFGTYYCQQYYSPVRTFGQGTKVEIKR , please.
**Result** 64%

**Query** Queued: 1D2 SDR mutant HK54Q (antibody, IgG1, V domains shown, also called X3 Q) VH: QVQLVQSGAEVKKPGASVKVSCEASGYTFTDKYLHWVRQAPGQGLEWMAWINPQSGGTFYAQNFKGRVTVTRDTSINTAYLELTSLRLDDTSTYYCARGRDYYDQGAADLWGQGTMVTVSS VL: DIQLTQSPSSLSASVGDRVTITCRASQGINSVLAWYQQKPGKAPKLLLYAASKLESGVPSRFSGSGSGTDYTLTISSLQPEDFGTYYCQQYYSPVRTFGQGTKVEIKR
**Result** 93%

**Query** // repeat for 1D2 SDR mutant HK54P (antibody, IgG1, V domains shown, also called X3 P) VH: QVQLVQSGAEVKKPGASVKVSCEASGYTFTDKYLHWVRQAPGQGLEWMAWINPPSGGTFYAQNFKGRVTVTRDTSINTAYLELTSLRLDDTSTYYCARGRDYYDQGAADLWGQGTMVTVSS VL: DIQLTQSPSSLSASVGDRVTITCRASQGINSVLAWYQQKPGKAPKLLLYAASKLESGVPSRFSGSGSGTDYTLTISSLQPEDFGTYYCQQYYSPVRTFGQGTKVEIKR and report
**Result** 85%

**Query** Next up: 1D2 SDR mutant HD31P (antibody, IgG1, V domains shown, also called X1 P) VH: QVQLVQSGAEVKKPGASVKVSCEASGYTFTPKYLHWVRQAPGQGLEWMAWINPKSGGTFYAQNFKGRVTVTRDTSINTAYLELTSLRLDDTSTYYCARGRDYYDQGAADLWGQGTMVTVSS VL: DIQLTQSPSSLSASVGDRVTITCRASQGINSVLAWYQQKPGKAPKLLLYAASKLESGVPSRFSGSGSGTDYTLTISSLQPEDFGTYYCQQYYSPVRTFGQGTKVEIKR
**Result** 69%

**Query** # iterate: 1D2 SDR mutant HR100S (antibody, IgG1, V domains shown, also called X4 S) VH: QVQLVQSGAEVKKPGASVKVSCEASGYTFTDKYLHWVRQAPGQGLEWMAWINPKSGGTFYAQNFKGRVTVTRDTSINTAYLELTSLRLDDTSTYYCARGSDYYDQGAADLWGQGTMVTVSS VL: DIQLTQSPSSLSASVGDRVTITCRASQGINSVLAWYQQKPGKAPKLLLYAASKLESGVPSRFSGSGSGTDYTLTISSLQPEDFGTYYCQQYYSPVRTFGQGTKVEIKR
**Result** 72%
